These data points were gathered from PubChem BioAssay AID1996.

- Measurement conditions: buffer; pH 7.4; 200.0 µM
Known solubility kinetic of a selection of compounds

{"columns": ["Compound", "solubility kinetic"],
 "data": [
  ["CN1CCN(c2nc3ccccc3nc2C(C#N)S(=O)(=O)c2ccccc2)CC1 (stereo not given)", "> 61.1 µg/mL"],
  ["CN(C(=O)CN1C(=O)NC2(CCc3ccccc32)C1=O)C1CCCCC1 (stereo not given)", "> 53.3 µg/mL"],
  ["CC1CCCN(CC(=O)N2c3ccccc3Sc3ccccc32)C1 (stereo not given)", "31.7 µg/mL"],
  ["O=c1nc2n(c3ncccc13)CCCCC2", "> 32.3 µg/mL"],
  ["COc1ccc(-c2csc(-c3[nH]cnc3N)n2)cc1", "18.1 µg/mL"],
  ["COc1ccc(CCNc2c([N+](=O)[O-])ncn2C)cc1OC", "45.8 µg/mL"],
  ["Cc1ccc(C(=O)NCCCNC(=O)c2ccccc2F)cn1", "44.1 µg/mL"],
  ["N#Cc1c(CSCC(=O)O)cc(=O)n2c1[nH]c1ccccc12", "46.9 µg/mL"],
  ["O=C1c2ccccc2C(=O)c2[nH]c(=O)[nH]c21", "> 32.1 µg/mL"],
  ["COc1ccc(CCNC(=O)[C@@H](NC(N)=O)C(C)C)cc1", "> 44 µg/mL"],
  ["CN1C(c2ccccc2)CC(=NO)CC1c1ccccc1 (stereo not given)", "1.4 µg/mL"],
  ["Cc1ccc(C(=O)O)cc1NC(=O)C1CCN(S(=O)(=O)c2ccc3c(c2)OCCO3)CC1", "> 69.1 µg/mL"],
  ["CC(C)CC(=O)NC(=S)Nc1ccccc1N1CCCC1", "4 µg/mL"],
  ["COCCN(C(=O)c1ccco1)c1nc(-c2ccccc2)cs1", "5.7 µg/mL"],
  ["COc1ccc(CNC(=O)c2c(C)cc(=O)oc2C)cc1", "> 43.1 µg/mL"],
  ["Nc1nc2c(Cl)ccc(Cl)c2s1", "3.2 µg/mL"],
  ["COc1ccccc1-c1nc(COc2ccc(Cl)cc2Cl)no1", "< 0.4 µg/mL"],
  ["COC(=O)c1ccc(OC(=O)c2cnccn2)cc1", "> 38.7 µg/mL"],
  ["Cc1[nH]c2c(C)cccc2c1CC(=O)O", "> 30.5 µg/mL"],
  ["CCN(C(=O)C(=O)c1c[nH]c2ccccc12)c1ccccc1", "> 43.9 µg/mL"],
  ["Cc1ccc(CN(C(=O)c2ccco2)C2CCS(=O)(=O)C2)cc1 (stereo not given)", "> 50 µg/mL"],
  ["CCC(=O)OCC(=O)Nc1cc([N+](=O)[O-])ccc1Cl", "> 43 µg/mL"],
  ["N#Cc1ccsc1NC(=O)COC(=O)CCS(=O)(=O)c1ccccc1", "> 56.8 µg/mL"],
  ["COc1ccc(OC)c(/C=C2\\N=C(c3ccccc3)OC2=O)c1", "0.8 µg/mL"],
  ["N#C/C(=C/c1ccc(F)cc1)S(=O)(=O)c1ccccc1", "37.5 µg/mL"]
]}

###

- Measurement conditions: buffer; pH 7.4; 200.0 µM

{"columns": ["Compound", "Unit", "Relation operator", "solubility kinetic"],
 "data": [
  ["Fc1ccc(Nc2ncnc3sccc23)cc1", "µg/mL", "=", 32.8],
  ["COc1ccccc1NC(=O)/C(=C/c1cccs1)NC(=O)c1ccco1", "µg/mL", ">", 55.3],
  ["CCN(C(=O)COc1ccc(C(C)=O)cc1)c1cccc2ccccc12", "µg/mL", "=", 43.2],
  ["CC(C)C(=O)NCC(c1ccc2c(c1)OCO2)N1CCOCC1 (configuration not stated)", "µg/mL", ">", 48.1],
  ["CC[C@H](C)[C@H](NC(N)=O)C(=O)NCCc1ccc(OC)c(OC)c1", "µg/mL", ">", 50.6],
  ["Cc1nnc(SCC(=O)NC(C)(C)C)n1NCc1cccc(Br)c1", "µg/mL", ">", 61.9],
  ["C=CCSc1nc2c(c(=O)[nH]1)C(c1ccccc1)C(C#N)=C(N)O2 (configuration not stated)", "µg/mL", "=", 48.7],
  ["CC(C)Oc1ccc(C(=O)OCC(=O)c2ccc[nH]2)cc1", "µg/mL", "=", 15.1],
  ["O=C(Nc1ccc(Nc2ccccc2)cc1)Nc1ccccc1Cl", "µg/mL", "<", 0.2],
  ["OCC1CCCCN1C(=S)Nc1ccc(Cl)cc1Cl (configuration not stated)", "µg/mL", ">", 47.9],
  ["O=c1[nH]c2ccccc2o1", "µg/mL", ">", 20.3],
  ["CCCCn1c(N)c(N(CC(C)C)C(=O)c2cnccn2)c(=O)[nH]c1=O", "µg/mL", "=", 53.9]
]}
